system: IGROV-1; assay: NCI tumour cell line growth inhibition, 48 h
Activity calls are given as the source filed them. Cut-off read from the data, not from the text of the source: active = GI50 up to about 1.1 µM and inactive = higher.
experimental endpoint: GI50

Please review the entries below; each comes with its answer.
| compound | assay target | reading |
| --- | --- | --- |
| CCOC(=O)N(C)C1(c2ccccc2)CCN(CCCC(=O)c2ccc(F)cc2)CC1 | IGROV-1 | > 100 µM (inactive) |
| Cc1ccc(-c2c(C#N)c(-c3ccc(Cl)cc3)c(C#N)c(=O)n2NS(=O)(=O)c2ccccc2)cc1 | IGROV-1 | 33 µM (inactive) |
| Cc1ccc(NCC2(/N=C/c3ccccc3)OC(CO)C(O)C2O)cc1 (stereo unspecified) | IGROV-1 | > 100 µM (inactive) |
| O=c1c2cc(Br)ccc2oc2nc3n(c(=O)c12)CCCS3 | IGROV-1 | > 100 µM (inactive) |
| COc1ccc(C2CC(C)(O)Oc3cc4c(cc32)OCO4)cc1 (stereo unspecified) | IGROV-1 | 29.5 µM (inactive) |
| CC1CC(c2ccc(Cl)c(Cl)c2)=Nc2ccccc2S1 (stereo unspecified) | IGROV-1 | > 100 µM (inactive) |
| NC1=Nc2ccccc2Sc2nncn21 | IGROV-1 | > 100 µM (inactive) |
| Cc1nn(C(=O)Cc2ccccc2)c2c1C(c1ccc([N+](=O)[O-])cc1)SC(=N)N2 (stereo unspecified) | IGROV-1 | > 100 µM (inactive) |

Hey, quick one: what's GI50 for each of these?
1. O=c1oc2ccccc2cc1-c1nc2ccccc2c(=O)[nH]1
2. COC1=C(OC)C(=O)C(Cc2c(Cl)nc3sccn23)=C(C)C1=O
3. O=S(=O)(O)c1ccc(/N=N/c2c(O)ccc3ccccc23)cc1

["> 100 µM (inactive)", "15.7 µM (inactive)", "> 100 µM (inactive)"]

----------
Kindly state GI50 for each of the entries shown.
tested on: NCI-H460; experiment: NCI tumour cell line growth inhibition, 48 h
Calls of active or inactive are those of the source. Rule as the data show it: active = GI50 up to about 1.1 µM and inactive = higher.

Please review the entries below; each comes with its answer.
| compound | GI50 |
| --- | --- |
| C1=C(c2ccccc2)SC(N2CCCCC2)S1 (stereo not given) | > 100 µM (inactive) |
| Cc1ccc(S(=O)(=O)N2C[C@@H]3CC[C@]4(CO[Si](C)(C)C(C)(C)C)N[C@@H](c5ccccc5)[C@H]2[C@H]34)cc1 | 26.1 µM (inactive) |
| CCN(CC)C(=O)CCn1ccc(=O)[nH]c1=O | > 100 µM (inactive) |
| N#[N+][c-]1c(-c2ccccc2)n[nH]c1=O | > 100 µM (inactive) |
| C/C1=C\CC[C@@]2(C)O[C@@H]2[C@H]2OC(=O)C(C)C2C[C@H]1O (stereo not given in full) | > 100 µM (inactive) |
| CO/N=C1/C(n2[nH]c(=O)n(-c3ccccc3)c2=O)C2C=CC1n1c(=O)n(-c3ccccc3)c(=O)n12 (stereo not given) | > 100 µM (inactive) |

Hey, quick one: what's GI50 for each of these?
1. NC1c2c(Br)sc(N3CCCC3)c2C(=O)C1O (stereo not given)
2. CC(=O)NNc1nc(C)c(C(/C=C/c2ccc([N+](=O)[O-])cc2)=N/NC(N)=O)s1
3. Clc1cc(Cl)ncn1
4. NC1CC(=O)c2c(Cl)sc(Cl)c21 (stereo not given)

1. > 50 µM (inactive)
2. > 100 µM (inactive)
3. > 100 µM (inactive)
4. 14.5 µM (inactive)

----------
test system: K562; assay: NCI tumour cell line growth inhibition, 48 h
Activity calls are given as the source filed them. Cut-off read from the data, not from the text of the source: active = GI50 up to about 1.1 µM and inactive = higher.
experimental endpoint: GI50

| molecule | GI50 |
| --- | --- |
| COC(=O)c1ccc2cc(O)c(O)cc2c1 | 33.9 µM (inactive) |
| CCCCc1nccc2c(C)c3[nH]c4ccccc4c3cc12 | 1.95 µM (inactive) |
| Clc1ccc(Cl)c(SCCCN2CCNCC2)c1 | 14.6 µM (inactive) |
| O=C(NNC(=O)c1ccncc1)c1ccncc1 | > 100 µM (inactive) |
| COc1ccc(/C=C/C(=O)c2sc(-c3cccnc3)nc2C)cc1 | 21.8 µM (inactive) |

Hey, quick one: what's GI50 for each of these?
1. N=C(N)SCc1ccc2c(c1)Sc1ccccc1O2
2. CCOc1cc(NC(C)=O)ccc1C(=O)NNS(=O)(=O)c1ccc(Cl)cc1Cl
3. CC(CC(=O)CO[C@H]1[C@H](O)[C@@H](O)[C@@H](O)[C@@H]2NC(=O)c3c(cc4c(c3O)OCO4)[C@H]21)OC1OC(CO)C(O)C(O)C1O (some centres not stated)
4. COc1ccc2c(c1)CN1C(=N2)CSC1c1cccc(Br)c1 (configuration not stated)
5. CC(=O)c1sc(Nc2nnc(-c3ccc(-c4nnc(Nc5nc(C)c(C(C)=O)s5)o4)cc3)o2)nc1C
6. COc1c(F)c(F)c(C(=O)/C=C2\Nc3ccccc3NC2=O)c(F)c1F
7. O=C(CNC(=O)OCc1ccccc1)NCCCCC(NC(=O)OCc1ccccc1)C(=O)NC(CCCCNC(=O)CNC(=O)OCc1ccccc1)C(=O)OCc1ccccc1 (configuration not stated)

1: 6.03 µM (inactive); 2: 0.232 µM (active); 3: 0.309 µM (active); 4: 5.89 µM (inactive); 5: > 100 µM (inactive); 6: > 10 µM (inactive); 7: > 62.5 µM (inactive)

Hey, quick one: what's GI50 for each of these?
1. O=[N+]([O-])c1nccn1COCCF
2. N#CCC(=O)N/N=C(\C(=O)Nc1ccc(Cl)c(Cl)c1)C1CN(c2ccccc2)N=C1N (configuration not stated)
3. O=C1NC(Nc2ccccc2Cl)=N/C1=C\c1c(Cl)cccc1Cl
4. CCOC(=O)c1c2ccccc2n2c(=O)n(-c3ccc(OC)cc3)nnc12
5. Cc1cc(=O)oc2c(C)c(OCCCOc3ccc4c(C)cc(=O)oc4c3C)ccc12

> 100 µM (inactive)
> 100 µM (inactive)
17.1 µM (inactive)
25.9 µM (inactive)
> 100 µM (inactive)

Hey, quick one: what's GI50 for each of these?
1. CC/C(SC)=[N+](\C)[O-]
2. CSc1nc(=O)n(CCC#N)nc1SC

1. 44.2 µM (inactive)
2. 25.6 µM (inactive)

----------
tested on: IGROV-1; experiment: NCI tumour cell line growth inhibition, 48 h
Active and inactive are the calls of the source. No stated cut-off is given here; in the data, active = GI50 up to about 1.1 µM and inactive = higher.
Answer with one of the outcomes given here: active, inactive

// below: answered compounds
| compound | group |
| --- | --- |
| CC[C@@]1(O)C(=O)OCc2c1cc1n(c2=O)Cc2c-1nc1ccccc1c2/C=N\NC(=O)C(N)CC(C)C (stereo partly specified) | active |
| c1ccc2c(c1)N=c1cc3c(cc1N2)=NC12CCCCC1CC1=C(CCCC1)N32 (stereo unspecified) | inactive |
| CC(CC(=O)CO[C@H]1[C@H](O)[C@@H](O)[C@@H](O)[C@@H]2NC(=O)c3c(cc4c(c3O)OCO4)[C@H]21)OC1OC(CO)C(O)C(O)C1O (stereo partly specified) | active |
| CN(C)CCNc1ccc([N+](=O)[O-])c2sc3ccccc3c(=O)c12 | inactive |
| COc1ccc(CCc2nccn2C)cc1OC | inactive |

Which outcome was entered for the compound Cc1cc2nc(O)c(CCC(=O)O)nc2cc1C in this test?
inactive

How about this compound: CSC(=O)C[C@@]12O[C@@H]([C@@H](C)C3CCC4[C@@H]5C(O)CC6=CC(=O)C=C[C@]6(C)C5CC[C@@]43C)C[C@](C)(O1)C(C)(C)O2 (stereo partly specified)
inactive

How about this compound: N/N=C1N=C(Cl)/C(=C/c2ccco2)N\1
inactive

How about this compound: COc1ccc2c(c1)CN1C(=N2)CSC1c1cccc(Br)c1 (stereo unspecified)
inactive

----------
Kindly state GI50 for each of the entries shown.
tested on: LOX IMVI; assay: NCI tumour cell line growth inhibition, 48 h
Activity calls are given as the source filed them. No stated cut-off is given here; in the data, active = GI50 up to about 1.1 µM and inactive = higher.

| compound | assay target | reading |
| --- | --- | --- |
| O=C(CC1(O)C(=O)Nc2ccc(Br)cc21)c1cccc([N+](=O)[O-])c1 (stereo unspecified) | LOX IMVI | 32.4 µM (inactive) |
| N=c1oc2ccc(Cl)cc2cc1C(=O)NC1CCCCC1 | LOX IMVI | 53 µM (inactive) |
| CN(C)C(=S)/N=c1\ss/c(=N\C(=S)N(C)C)n1-c1ccc(Cl)cc1 | LOX IMVI | > 100 µM (inactive) |
| COc1ccc(-n2c3c(c4cc(O)ccc42)C(=O)c2ccccc2C3=O)cc1 | LOX IMVI | 4.71 µM (inactive) |
| COc1ccc(NC(C)=O)cc1C1CCC(=O)N1 (stereo unspecified) | LOX IMVI | > 100 µM (inactive) |
| O=[N+]([O-])c1nccn1COCCF | LOX IMVI | > 100 µM (inactive) |
| CCN(CC)C(=O)CCn1ccc(=O)[nH]c1=O | LOX IMVI | > 100 µM (inactive) |
| O=C(O)C1c2ccccc2C(C(=O)O)c2ccccc21 (stereo unspecified) | LOX IMVI | > 100 µM (inactive) |
| CC(C)NC(=O)CN1CCN(C2=CC(=O)c3c(O)ccc(O)c3C2=O)CC1 | LOX IMVI | 6.1 µM (inactive) |
| Cc1ccc2nc(NC(=O)C(=O)C(C#N)c3nc4ccccc4s3)sc2c1 (stereo unspecified) | LOX IMVI | 37.2 µM (inactive) |

Hey, quick one: what's GI50 for each of these?
1. COC(=O)C[C@H](COCc1ccccc1)NC(=O)C[C@H](COCc1ccccc1)NC(=O)C[C@H](COCc1ccccc1)NC(=O)OC(C)(C)C
2. CN(C)CC1CC/C(=C\c2ccc(Cl)cc2)C1=O (stereo unspecified)
3. O=C1NC(Nc2ccccc2Cl)=N/C1=C\c1c(Cl)cccc1Cl
4. CCOc1cc(NC(C)=O)ccc1C(=O)NNS(=O)(=O)c1ccc(Cl)cc1Cl
5. CCCCCCCCCCCC[S+](C)C

58.7 µM (inactive)
2.4 µM (inactive)
29.4 µM (inactive)
45.5 µM (inactive)
2.86 µM (inactive)

Reported GI50 for C[C@@H]1S[C@H](c2c(Cl)cccc2Cl)N2Cc3ccccc3N=C12 : what is it?
> 100 µM (inactive)
